The measured values listed here are drawn from ChEMBL document CHEMBL4513216.

Test system: Plasmodium berghei
Experimental Protocol: Screen against P. berghei liver stage (PbLuc), transformed with Luciferase, at 2uM
Type: functional, HepG2
Condition Description: tested at 2 uM
Hit rate of the full screen: of about 68,000 compounds, about 2,700 (4%) showed an effect of 50% or more. The sample as a whole holds a higher share of strong results than the screen did.
Threshold check on INHIBITION: strictly below 20% is Met; on or above 20% is Not met.

Q) Is INHIBITION of CS(=O)(=O)c1cccc(C(N)c2ccccc2)c1 (stereo not drawn) strictly below 20%?
A) Not met

Q) Is INHIBITION of "O=C1O[C@@H]2CN(c3ccccn3)C[C@@H]2N1CCCc1ccc(F)cc1" strictly below 20%?
A) Met

Q) Is INHIBITION of "Cc1noc(C)c1CN1CCN(c2ccnc(-c3ccccc3)n2)CC1" strictly below 20%?
A) Met

Q) Is INHIBITION of "CN(CC(C)(CO)CO)C(=O)Nc1cc(Cl)cc(Cl)c1" strictly below 20%?
A) Met

Q) Is INHIBITION of "O=C1O[C@@H]2CN(c3cnccn3)C[C@@H]2N1CCCc1ccc(F)cc1" strictly below 20%?
A) Not met

Q) Is INHIBITION of O=S1(=O)c2ccccc2C2(CCN(Cc3cccnc3)C2)N1CC1CC1 (stereo not drawn) strictly below 20%?
A) Not met

Q) Is INHIBITION of "Cc1cnc(N2CC3(CCN(Cc4cccnc4)C3)C2)nc1" strictly below 20%?
A) Met

====

Tested on: Plasmodium berghei
Experimental Protocol: Screen against P. berghei liver stage (PbLuc), transformed with Luciferase, at 2uM
Assay type: functional, HepG2
Condition Description: tested at 2 uM
In all, about 68,000 compounds went through this assay and about 2,700 (4%) showed an effect of 50% or more. The sample as a whole holds a higher share of strong results than the screen did.
Outcome Measure: INHIBITION (%)
Numbers only, in %.

Use these answered entries as a reference point.
>>> quantitative_readout("Cn1cccc1CN1CCC2(CC1)CN(c1ccccc1)C(=O)CO2")
40.64
>>> quantitative_readout("Cn1cccc1CN1CCC2(CC1)CN(c1ncccn1)CCO2")
-8.63
>>> quantitative_readout("O=C(Nc1cccnc1)[C@@H]1C[C@H]2OCC[C@H]2N(Cc2nccs2)C1")
1.06

Required: INHIBITION, one value per compound below.
1. Cc1nc(CN2C[C@@H]3CN(C(=O)C4(C#N)CC4)C[C@@H]3C2=O)cs1
2. Cc1nnc(CN2C[C@H](NC(=O)C3CCOCC3)[C@@H](C(C)C)C2)s1

A)
1. 25.5
2. -29.43

Required: INHIBITION, one value per compound below.
1. COCCN1CCc2ncnc(NC(C)C)c2CC1
2. O=C(O)C1(Cc2ccc(F)cc2F)CCCN(Cc2ccncc2)C1 (stereo unspecified)
3. OCC1(Cc2ccc(F)cc2F)CCCN(Cc2ccncc2)C1 (stereo unspecified)
4. CCN(CC)S(=O)(=O)N1CC[C@H](c2ccccc2)[C@H]2NCCCC[C@H]21
5. CC(O)c1cnn(-c2ccccc2)c1 (stereo unspecified)
6. CCOc1c(Br)cc(CNCCc2nnc3n2CCCCC3)cc1OC

A)
1. 3.6
2. 43.57
3. 61.48
4. 39.99
5. 23.06
6. 23.16
